Measurement Protocol: qHTS Assay for Inhibitors of Fructose-1,6-bisphosphate Aldolase from Giardia Lamblia: Coupling assay counterscreen
Experimental Context: coupling enzyme system counterscreen, AmpLite Red fluorescence; at 58.2 µM (top of the series)
About 2,000 (0.69%) of roughly 290,000 compounds were called active. The entries come from a sample that favours actives as a whole.
Criterion: activity change, negative = inhibition meeting or surpassing -40%. Met: Yes. Not met: No.

Past entries and their recorded results:
Cc1[nH][nH]c(=O)c1C(c1ccc(-c2ccc(Cl)cc2)o1)c1c(C)[nH][nH]c1=O    No
CC(=O)n1c(C=Nc2ccccc2)c(O)c2ccccc21    Yes
O=C(Nc1nnc(S(=O)(=O)N2CCCCCC2)s1)c1cccc(Br)c1    Yes
Oc1ccc2ccccc2c1C=Nc1ccccc1    Yes
O=c1o[nH]c(-c2ccccc2)c1N=Nc1c(F)cccc1Cl    Yes
CC(=O)N1CCc2c(sc(NC(=O)CCS(=O)(=O)c3ccccc3)c2C#N)C1    Yes
CCCCN=C1C([N+](=O)[O-])=CC=C2C1=NC1(CCCCC1)N2O    No
CCOc1ccc(CCNC(=O)Nc2ccccc2)cc1OCC    Yes

Now look at this one.
Q: Determine whether this molecule has activity change, negative = inhibition no lower than -40%: Oc1ccc(N=Cc2sc3ccccc3c2Cl)cc1
Result: No
